Molecular target: Nonstructural protein 3 (Zika virus, UniProt A0A024AXB9)
Sequence (A0A024AXB9 whole entry): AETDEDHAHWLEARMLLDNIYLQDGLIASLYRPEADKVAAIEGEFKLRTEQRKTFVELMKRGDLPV
Test: Functional biochemical assay to identify treatments for viral infectious disease that targets Zika NS2B-NS3 protease. Utilizing a direct enzyme activity measurement method, reading the fluorescence intensity is used to characterize the relative potency of inhibitors as IC50.
Design: species or system PRVABC59
Reported IC50 values are given for each entry in this list.

Observe how each entry below is paired with its result.
smilesrecord=Cc1ccc(C)n1-c1ccc(Cl)cc1C(=O)Nc1ccc2c(c1)CNC2 propertylabel=IC50 assayvalue="> 25 µM"
smilesrecord=Brc1cnc(Sc2ncc[nH]2)nc1 propertylabel=IC50 assayvalue="> 99.5 µM"
smilesrecord=CCn1c(=O)c(N2CC[C@@H](Cc3ccncc3)C2)nc2ccccc21 propertylabel=IC50 assayvalue="> 99.5 µM"
smilesrecord=c1ccc2sc(C3CCN(CCc4c[nH]c5ccccc45)CC3)nc2c1 propertylabel=IC50 assayvalue="> 99.5 µM"
smilesrecord=CN1CCN(C2CN(C(=O)c3cc(Br)cc(C=O)c3)C2)CC1 propertylabel=IC50 assayvalue="> 99.5 µM"
smilesrecord=Cn1c(Sc2nc3ccccc3o2)nc2sccc2c1=O propertylabel=IC50 assayvalue="> 99.5 µM"

**Query** // output IC50; input `O=C(Nc1cc(Cl)cc(C(=O)N2CCC[C@H](c3nnn[nH]3)C2)c1)OCc1ccccc1` ; system Nonstructural protein 3 (Zika virus, UniProt A0A024AXB9)
**Result** > 99.5 µM

**Query** // output IC50; input `Cn1ncc2cc(C(=O)N3CCC(NC(=O)[C@]4(C)CCC[C@H]4O)CC3)cc(O)c21` ; system Nonstructural protein 3 (Zika virus, UniProt A0A024AXB9)
**Result** > 99.5 µM

**Query** // output IC50; input `Cn1nc(C(=O)Nc2cc(-c3cccnc3)ccn2)cc1C1CC1` ; system Nonstructural protein 3 (Zika virus, UniProt A0A024AXB9)
**Result** > 25 µM

**Query** // output IC50; input `CCn1ccnc(-n2cc([C@@H]3NC(=O)NC3=O)c3ccccc32)c1=O` ; system Nonstructural protein 3 (Zika virus, UniProt A0A024AXB9)
**Result** > 99.5 µM

**Query** // output IC50; input `CC(C)(C)c1cc(CN2CCC(c3cscn3)CC2)n[nH]1` ; system Nonstructural protein 3 (Zika virus, UniProt A0A024AXB9)
**Result** > 99.5 µM

**Query** // output IC50; input `C[C@H]1NCc2cc(NC(=O)c3cc(F)cc4[nH]ncc34)ccc21` ; system Nonstructural protein 3 (Zika virus, UniProt A0A024AXB9)
**Result** 0.488 µM

* * *

Molecular target: Nonstructural protein 3 (Zika virus)
Test: Functional biochemical assay to identify treatments for viral infectious disease that targets Zika NS2B-NS3 protease. Utilizing a direct enzyme activity measurement method, reading the fluorescence intensity is used to characterize the relative potency of inhibitors as IC50.
Parameters: species or system PRVABC59
propertyLabel: IC50

Observe how each entry below is paired with its result.
smilesrecord=NC(=O)c1ccccc1NS(=O)(=O)c1ccc(Oc2ccccc2Cl)cc1 propertylabel=IC50 assayvalue="> 99.5 µM"
smilesrecord=CO[C@]1(C(=O)Nc2ccc3c(c2)C(=O)OC3)CCCNC1 propertylabel=IC50 assayvalue="> 25 µM"
smilesrecord=Cc1c(NC(=O)c2cccc3c2CC(=O)N3)cnn1C1CCOCC1 propertylabel=IC50 assayvalue="> 25 µM"
smilesrecord=Cc1cc(C(=O)Nc2cccc(CN)c2)cc(NCC(F)(F)F)n1 propertylabel=IC50 assayvalue="> 99.5 µM"

**Query** Tell me measured IC50 for `NC1(c2cccc(NS(=O)(=O)c3ccc(Oc4ccccc4Cl)cc3)c2)CCC1` please.
**Result** > 99.5 µM
